target: CDK12/CycK (Homo sapiens, UniProt Q9NYV4); assay: CDK12/CycK high ATP kinase assay (TR-FRET, 2 mM ATP); conditions: 2 mM ATP (high ATP); median; read-out: CDK12/CyclinK, 2 mM ATP (high ATP), IC50-[mol/l] (median)
Sequence (Q9NYV4 with tags, fused parts or gaps): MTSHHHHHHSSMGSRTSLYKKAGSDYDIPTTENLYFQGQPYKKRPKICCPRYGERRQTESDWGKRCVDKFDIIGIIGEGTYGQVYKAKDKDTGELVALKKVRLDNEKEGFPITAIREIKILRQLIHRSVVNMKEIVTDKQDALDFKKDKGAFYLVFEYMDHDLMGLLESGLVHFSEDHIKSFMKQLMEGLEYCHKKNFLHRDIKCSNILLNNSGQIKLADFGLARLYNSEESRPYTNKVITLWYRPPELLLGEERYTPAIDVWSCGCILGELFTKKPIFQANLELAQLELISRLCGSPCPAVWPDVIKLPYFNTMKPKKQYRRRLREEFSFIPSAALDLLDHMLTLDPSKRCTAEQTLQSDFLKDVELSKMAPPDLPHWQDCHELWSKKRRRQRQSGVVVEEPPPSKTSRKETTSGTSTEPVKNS
Sequence (O75909 1-300 partner limits assumed): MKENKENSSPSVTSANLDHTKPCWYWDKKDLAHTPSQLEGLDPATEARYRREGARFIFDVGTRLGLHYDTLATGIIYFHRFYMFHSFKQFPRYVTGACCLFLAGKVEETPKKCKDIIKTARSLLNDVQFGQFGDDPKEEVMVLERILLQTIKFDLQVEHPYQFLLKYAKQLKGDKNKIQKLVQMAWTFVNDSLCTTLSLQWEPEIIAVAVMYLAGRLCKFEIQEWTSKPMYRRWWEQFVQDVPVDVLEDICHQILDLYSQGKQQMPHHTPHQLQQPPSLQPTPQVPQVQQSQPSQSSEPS
Binary call on IC50 with cut-off 5 µM: strictly below means Satisfied, and equality or higher means Not satisfied.

compound="CN(CC(C)(C)O)c1nc(NCc2nc3c(F)cccc3[nH]2)n2ncc(C3CC3)c2n1 [Example 295]" label_class=Satisfied
compound="CN1CC[C@@H]2CN(c3nc(NCc4nc5ccccc5[nH]4)n4ncc(Br)c4n3)C[C@@H]21 [Example 217]" label_class="Not satisfied"
compound="Clc1cnn2c(NCc3nc4ccccc4[nH]3)nc(N3CCOCC3)nc12 [Example 15]" label_class="Not satisfied"
compound="Brc1cnn2c(NCc3nc4ccncc4[nH]3)nc(N3CCOCC3)nc12 [Example 22]" label_class=Satisfied
compound="Brc1cnn2c(NCc3nc4ccccc4[nH]3)nc(NCCN3CCCC3)nc12 [Example 235]" label_class="Not satisfied"
compound="Cc1ccc2[nH]c(CNc3nc(N4C[C@@H]5CCCN[C@@H]5C4)nc4c(Br)cnn34)nc2c1 [Example 203]" label_class="Not satisfied"
compound="Fc1ccc2[nH]c(CNc3nc(N4CCOCC4)nc4c(CC(F)F)cnn34)nc2c1F.O=C(O)C(F)(F)F [Example 425]" label_class=Satisfied
compound="Fc1cccc2[nH]c(CNc3nc(N4CCNCC4)nc4c(C5CC5)cnn34)nc12 [Example 182]" label_class=Satisfied
compound="CN1CCN(c2nc(NCc3nc4cc(Cl)c(Cl)cc4[nH]3)n3ncc(-c4cnn(C)c4)c3n2)CC1 [Example 420]" label_class="Not satisfied"
compound="Brc1cnn2c(NCc3nc4cccnc4[nH]3)nc(N3CCNCC3)nc12.O=CO [Example 19, formic acid salt]" label_class="Not satisfied"
compound="Fc1ccc(-c2nnc(CNc3nc(N4CCOCC4)nc4c(Br)cnn34)[nH]2)cc1 [Example 29]" label_class=Satisfied
compound="C[C@@H]1CN(c2nc(NCc3nnc(-c4ccccc4)[nH]3)n3ncc(Br)c3n2)CCN1C.O=CO [Example 130, formate]" label_class="Not satisfied"
compound="CCc1cnn2c(NCc3nc4ccccc4[nH]3)nc(N3CCN(C)CC3)nc12 [Example 434]" label_class="Not satisfied"
compound="Cn1cc(-c2cnn3c(NCc4nc5cc(Cl)c(Cl)cc5[nH]4)nc(N4CCOCC4)nc23)cn1 [Example 419]" label_class="Not satisfied"
compound="CN1CCN(c2nc(NCc3nc4c(F)c(F)ccc4[nH]3)n3ncc(C4CC4)c3n2)CC1 [Example 159]" label_class="Not satisfied"
compound="CN1CCN(c2nc(NCc3nc4c(F)cccc4[nH]3)n3ncc(Cl)c3n2)CC1.O=CO [Example 362]" label_class="Not satisfied"
compound="CN(CC(C)(C)O)c1nc(NCc2nc3ccccc3[nH]2)n2ncc(Br)c2n1 [Example 238]" label_class=Satisfied
compound="CO[C@H]1CCN(c2nc(NCc3nc4ccccc4[nH]3)n3ncc(Br)c3n2)C1 [Example 222]" label_class="Not satisfied"
compound="Cc1ccc2[nH]c(CNc3nc(N4C[C@H]5C[C@@H]4CO5)nc4c(C5CC5)cnn34)nc2c1 [Example 196]" label_class="Not satisfied"
compound="CN1CC2CCC(C1)N2c1nc(NCc2nc3ccccc3[nH]2)n2ncc(Br)c2n1 [Example 226]" label_class="Not satisfied"
compound="Fc1ccccc1-c1cnc(CNc2nc(N3CCOCC3)nc3c(Br)cnn23)[nH]1 [Example 86]" label_class=Satisfied
compound="CC(C)(O)COc1nc(NCc2nc3ccccc3[nH]2)n2ncc(Br)c2n1 [Example 398]" label_class="Not satisfied"
compound="N[C@H]1CN(c2nc(NCc3nc4ccccc4[nH]3)n3ncc(Br)c3n2)CC12CC2 [Example 259]" label_class=Satisfied
compound="CC(C)COc1nc(NCc2nc3ccccc3[nH]2)n2ncc(Br)c2n1 [Example 409]" label_class="Not satisfied"
compound="C[C@H]1CN(c2nc(NCc3nc4ccccc4[nH]3)n3ncc(Br)c3n2)CCN1 [Example 169]" label_class="Not satisfied"
compound="Cc1cc2nc(CNc3nc(N4CCOCC4)nc4c(Br)cnn34)[nH]c2cc1C [Example 340]" label_class=Satisfied
compound="Brc1cnn2c(NCc3nnc(-c4cccnc4)[nH]3)nc(N3CCOCC3)nc12 [Example 53]" label_class=Satisfied
compound="Fc1cccc(-c2nnc(CNc3nc(N4C[C@H]5C[C@@H]4CO5)nc4c(Br)cnn34)[nH]2)c1 [Example 153]" label_class=Satisfied
compound="COc1cccc2[nH]c(CNc3nc(N4C[C@@H](C)N[C@@H](C)C4)nc4c(C5CC5)cnn34)nc12 [Example 212]" label_class=Satisfied
compound="Fc1ccc2[nH]c(CNc3nc(N4CCOCC4)nc4c(-c5nccs5)cnn34)nc2c1F [Example 413]" label_class="Not satisfied"
compound="Cc1cc2nc(CNc3nc(N4CCN(C)CC4)nc4c(Br)cnn34)[nH]c2cc1C [Example 342]" label_class="Not satisfied"
